- assayComment: Half life in Sprague-Dawley rat at 1 mg/kg, iv
- Assay type: ADME, organism-based
- Design: dose 1 mg/kg, route intravenous
- condition: in vivo
measurementLabel: half-life
Units required after the number.

## Input Need half-life, item Cc1cc(S(=O)(=O)N[C@@H](C(=O)NO)C2CCOCC2)ccc1F
## Output 1.4 h

---

- targetDesc: Neprilysin (Homo sapiens)
- Sequence (P08473 whole entry): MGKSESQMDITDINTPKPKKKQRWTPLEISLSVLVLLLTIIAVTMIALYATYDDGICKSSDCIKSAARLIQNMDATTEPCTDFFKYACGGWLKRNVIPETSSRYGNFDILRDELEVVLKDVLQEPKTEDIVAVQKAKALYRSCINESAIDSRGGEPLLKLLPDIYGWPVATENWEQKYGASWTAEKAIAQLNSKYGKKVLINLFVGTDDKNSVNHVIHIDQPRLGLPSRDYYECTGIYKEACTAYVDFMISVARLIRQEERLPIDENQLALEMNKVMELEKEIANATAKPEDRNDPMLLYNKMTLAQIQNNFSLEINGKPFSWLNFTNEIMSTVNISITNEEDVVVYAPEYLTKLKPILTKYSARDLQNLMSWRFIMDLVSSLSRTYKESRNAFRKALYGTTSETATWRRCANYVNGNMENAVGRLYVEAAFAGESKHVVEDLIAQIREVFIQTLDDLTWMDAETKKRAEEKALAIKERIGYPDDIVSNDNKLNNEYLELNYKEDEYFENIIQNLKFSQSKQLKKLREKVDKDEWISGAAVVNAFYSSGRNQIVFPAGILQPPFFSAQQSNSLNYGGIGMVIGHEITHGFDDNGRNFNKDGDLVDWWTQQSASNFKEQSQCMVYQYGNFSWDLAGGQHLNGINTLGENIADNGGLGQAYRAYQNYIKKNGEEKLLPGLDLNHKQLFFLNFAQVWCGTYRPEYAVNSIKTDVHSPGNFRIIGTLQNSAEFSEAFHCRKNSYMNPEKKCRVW
measurementLabel: IC50 (µM)
Form entry: value (µM) — number only.

## Input Need IC50, item Cc1cc(S(=O)(=O)N[C@@H](C(=O)NO)C2CCOCC2)ccc1F
## Output 9.4

---

- assayComment: Volume of distribution in Guinea pig at 2 mg/kg, iv
- Assay type: ADME, organism-based, Cavia porcellus
- Design: dose 2 mg/kg, route intravenous
- condition: in vivo, read-out: Vdss
measurementLabel: Vd (L/kg)
Form entry: value (L/kg) — number only.

## Input Need Vd, item Cc1cc(S(=O)(=O)N[C@@H](C(=O)NO)C2CCOCC2)ccc1F
## Output 1.1

---

- assayComment: Cmax in rhesus monkey at 1 mg/kg, iv
- Assay type: ADME, organism-based, Macaca mulatta
- Set-up: dose 1 mg/kg, route intravenous
- condition: in vivo
measurementLabel: Cmax (nM)
Form entry: value (nM) — number only.

## Input Need Cmax, item Cc1cc(S(=O)(=O)N[C@@H](C(=O)NO)C2CCOCC2)ccc1F
## Output 120

---

- assayComment: Clearance in Dutch Belted rabbit at 2 mg/kg, iv
- Type: ADME, organism-based, Oryctolagus cuniculus
- Design: dose 2 mg/kg, route intravenous
- condition: in vivo
measurementLabel: clearance
Units required after the number.

## Input Need clearance, item Cc1cc(S(=O)(=O)N[C@@H](C(=O)NO)C2CCOCC2)ccc1F
## Output 14 mL/min/kg

---

- assayComment: Tmax in Beagle dog at 1 mg/kg, iv
- Assay type: ADME, organism-based, Canis lupus familiaris
- Parameters: dose 1 mg/kg, route intravenous
- condition: in vivo
measurementLabel: Tmax (min)
Form entry: value (min) — number only.

## Input Need Tmax, item Cc1cc(S(=O)(=O)N[C@@H](C(=O)NO)C2CCOCC2)ccc1F
## Output 48

---

- assayComment: Volume of distribution in Dutch Belted rabbit at 2 mg/kg, iv
- Assay type: ADME, organism-based, Oryctolagus cuniculus
- Parameters: dose 2 mg/kg, route intravenous
- condition: in vivo, read-out: Vdss
measurementLabel: Vd
Units required after the number.

## Input Need Vd, item Cc1cc(S(=O)(=O)N[C@@H](C(=O)NO)C2CCOCC2)ccc1F
## Output 1.5 L/kg

---

- assayComment: Half life in Dutch Belted rabbit at 2 mg/kg, iv
- Assay type: ADME, organism-based, Oryctolagus cuniculus
- Design: dose 2 mg/kg, route intravenous
- condition: in vivo
measurementLabel: half-life (h)
Form entry: value (h) — number only.

## Input Need half-life, item Cc1cc(S(=O)(=O)N[C@@H](C(=O)NO)C2CCOCC2)ccc1F
## Output 2

---

- assayComment: Bioavailability in rhesus monkey […], po
- Format: ADME, organism-based, Macaca mulatta
- condition: in vivo
measurementLabel: bioavailability
Units required after the number.

## Input Need bioavailability, item Cc1cc(S(=O)(=O)N[C@@H](C(=O)NO)C2CCOCC2)ccc1F
## Output 16%

---

- targetDesc: Lethal factor (Bacillus anthracis, UniProt P15917)
- Sequence (P15917 whole entry): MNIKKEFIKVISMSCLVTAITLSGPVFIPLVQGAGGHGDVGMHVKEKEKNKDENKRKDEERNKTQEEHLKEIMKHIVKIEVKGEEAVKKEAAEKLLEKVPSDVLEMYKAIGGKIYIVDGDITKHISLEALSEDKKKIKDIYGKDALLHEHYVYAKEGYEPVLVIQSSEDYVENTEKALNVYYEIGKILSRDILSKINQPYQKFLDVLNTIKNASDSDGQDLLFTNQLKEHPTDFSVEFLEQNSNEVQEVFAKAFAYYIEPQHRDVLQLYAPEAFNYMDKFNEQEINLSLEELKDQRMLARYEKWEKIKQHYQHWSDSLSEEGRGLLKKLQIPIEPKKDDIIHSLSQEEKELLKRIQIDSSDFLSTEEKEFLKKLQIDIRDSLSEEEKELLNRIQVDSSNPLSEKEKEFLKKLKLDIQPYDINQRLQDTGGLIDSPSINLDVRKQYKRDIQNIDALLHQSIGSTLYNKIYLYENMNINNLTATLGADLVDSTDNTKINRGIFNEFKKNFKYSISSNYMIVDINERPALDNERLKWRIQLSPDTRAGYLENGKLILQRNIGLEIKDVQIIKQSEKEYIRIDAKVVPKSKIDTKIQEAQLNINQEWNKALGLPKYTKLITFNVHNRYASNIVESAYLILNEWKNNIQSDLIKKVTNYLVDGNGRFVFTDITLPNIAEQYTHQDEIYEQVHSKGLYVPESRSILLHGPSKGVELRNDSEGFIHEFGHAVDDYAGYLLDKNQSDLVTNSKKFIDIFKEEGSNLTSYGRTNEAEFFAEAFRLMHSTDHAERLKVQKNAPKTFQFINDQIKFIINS
IC50 overview
Form entry: value (nM) — number only.

Below are worked cases with known answers.
compound=CC(C)[C@@H](NS(=O)(=O)c1ccc(F)cc1CO)C(=O)NO valuemeasured=1310
compound=CC[C@H](C)[C@@H](NS(=O)(=O)c1ccc(F)c(C)c1)C(=O)NO valuemeasured=67
compound=CC[C@@H](NS(=O)(=O)c1ccc(F)c(C)c1)C(=O)NO valuemeasured=100
compound="COc1ccc(S(=O)(=O)N(Cc2cccnc2)[C@@H](C(=O)NO)C(C)C)cc1.Cl [CGS-27023A]" valuemeasured=1200
compound=CC(C)[C@@H](NS(=O)(=O)c1cccc(F)c1)C(=O)NO valuemeasured=2800

## Input Under Lethal factor (Bacillus anthracis, UniProt P15917): IC50 value of Cc1ccc(S(=O)(=O)N[C@@H](C(=O)NO)C(C)C)cc1 ?
## Output 3000

## Input Under Lethal factor (Bacillus anthracis, UniProt P15917): IC50 value of Cc1cc(S(=O)(=O)N[C@@H](C(=O)NO)C2CC2)ccc1F ?
## Output 120

## Input Under Lethal factor (Bacillus anthracis, UniProt P15917): IC50 value of Cc1cc(S(=O)(=O)N[C@@H](C(=O)NO)[C@H]2CCOC2)ccc1F ?
## Output 120

## Input Under Lethal factor (Bacillus anthracis, UniProt P15917): IC50 value of COc1ccc(S(=O)(=O)N(CCn2ccnc2)[C@@H](C(=O)NO)C(C)C)cc1 ?
## Output 19100

## Input Under Lethal factor (Bacillus anthracis, UniProt P15917): IC50 value of CC(C)[C@@H](NS(=O)(=O)c1ccccc1F)C(=O)NO ?
## Output 6600

## Input Under Lethal factor (Bacillus anthracis, UniProt P15917): IC50 value of Cc1cc(S(=O)(=O)N[C@H](CCNC(=O)CN)C(=O)NO)ccc1F ?
## Output 37

---

- assayComment: Tmax in Dutch Belted rabbit at 2 mg/kg, iv
- Assay type: ADME, organism-based, Oryctolagus cuniculus
- Set-up: dose 2 mg/kg, route intravenous
- condition: in vivo
measurementLabel: Tmax (min)
Form entry: value (min) — number only.

## Input Need Tmax, item Cc1cc(S(=O)(=O)N[C@@H](C(=O)NO)C2CCOCC2)ccc1F
## Output 18

---

- targetDesc: 72 kDa type IV collagenase (Homo sapiens, UniProt P08253)
- Sequence (P08253 whole entry): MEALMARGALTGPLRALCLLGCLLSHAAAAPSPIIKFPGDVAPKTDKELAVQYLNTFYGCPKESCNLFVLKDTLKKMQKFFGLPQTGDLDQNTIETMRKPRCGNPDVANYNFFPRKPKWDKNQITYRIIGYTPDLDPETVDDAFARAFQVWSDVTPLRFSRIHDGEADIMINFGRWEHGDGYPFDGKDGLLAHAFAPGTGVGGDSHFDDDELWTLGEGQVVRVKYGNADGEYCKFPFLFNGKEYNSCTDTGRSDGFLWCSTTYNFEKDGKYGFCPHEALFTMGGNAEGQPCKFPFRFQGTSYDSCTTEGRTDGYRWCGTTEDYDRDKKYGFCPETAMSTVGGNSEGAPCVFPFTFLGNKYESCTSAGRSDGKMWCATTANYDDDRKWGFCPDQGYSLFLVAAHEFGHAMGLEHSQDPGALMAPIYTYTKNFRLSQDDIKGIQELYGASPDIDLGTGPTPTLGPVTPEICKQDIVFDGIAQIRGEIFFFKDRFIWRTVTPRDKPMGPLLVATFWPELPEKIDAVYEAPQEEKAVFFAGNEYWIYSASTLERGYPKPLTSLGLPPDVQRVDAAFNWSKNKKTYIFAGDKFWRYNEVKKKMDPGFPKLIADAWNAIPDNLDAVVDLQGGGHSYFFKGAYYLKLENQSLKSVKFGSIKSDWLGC
measurementLabel: pIC50
Quick note: pIC50 values are minus log10 of concentrations in mol/L.

## Input Under 72 kDa type IV collagenase (Homo sapiens, UniProt P08253): pIC50 value of Cc1cc(S(=O)(=O)N[C@@H](C(=O)NO)C2CCOCC2)ccc1F ?
## Output 5.70

---

- assayComment: Bioavailability in BALB/c mice […], po
- Format: ADME, organism-based
- condition: mouse, in vivo
measurementLabel: bioavailability (%)
Form entry: value (%) — number only.

## Input Need bioavailability, item Cc1cc(S(=O)(=O)N[C@@H](C(=O)NO)C2CCOCC2)ccc1F
## Output 20

---

- assayComment: Volume of distribution in BALB/c mice at 10 mg/kg, iv
- Assay type: ADME, organism-based
- Set-up: dose 10 mg/kg, route intravenous
- condition: mouse, in vivo, read-out: Vdss
measurementLabel: Vd (L/kg)
Form entry: value (L/kg) — number only.

## Input Need Vd, item Cc1cc(S(=O)(=O)N[C@@H](C(=O)NO)C2CCOCC2)ccc1F
## Output 1

---

- assayComment: Half life in rhesus monkey at 1 mg/kg, iv
- Assay type: ADME, organism-based, Macaca mulatta
- Set-up: dose 1 mg/kg, route intravenous
- condition: in vivo
measurementLabel: half-life (h)
Form entry: value (h) — number only.

## Input Need half-life, item Cc1cc(S(=O)(=O)N[C@@H](C(=O)NO)C2CCOCC2)ccc1F
## Output 2.4

---

This section lists IC50 readings for Lethal factor (Bacillus anthracis).
Form entry: value (nM) — number only.

Below are worked cases with known answers.
compoundstring=CC(C)[C@@H](NS(=O)(=O)c1ccc(F)c(CO)c1)C(=O)NO targetdesc="Lethal factor (Bacillus anthracis)" readoutunit=nM valuemeasured=3740
compoundstring=Cc1cc(S(=O)(=O)N[C@@H](C(=O)NO)C(C)(C)C)ccc1F targetdesc="Lethal factor (Bacillus anthracis)" readoutunit=nM valuemeasured=2300
compoundstring=Cc1cc(S(=O)(=O)N[C@@H](C(=O)NO)C2CCOCC2)ccc1F targetdesc="Lethal factor (Bacillus anthracis)" readoutunit=nM valuemeasured=210
compoundstring=Cc1cc(S(=O)(=O)N[C@@H](C(=O)NO)C2CC2)ccc1F targetdesc="Lethal factor (Bacillus anthracis)" readoutunit=nM valuemeasured=730

Now look at this entry.
## Input Need IC50, item Cc1cc(S(=O)(=O)N[C@@H](C(=O)NO)C2CCCCC2)ccc1F
## Output 190

---

- assayComment: Tmax in rhesus monkey at 1 mg/kg, iv
- Assay type: ADME, organism-based, Macaca mulatta
- Design: dose 1 mg/kg, route intravenous
- condition: in vivo
measurementLabel: Tmax (h)
Form entry: value (h) — number only.

## Input Need Tmax, item Cc1cc(S(=O)(=O)N[C@@H](C(=O)NO)C2CCOCC2)ccc1F
## Output 1.3

---

This section lists IC50 readings for Lethal factor (Bacillus anthracis, UniProt P15917).

## Input Under Lethal factor (Bacillus anthracis, UniProt P15917): IC50 value of CC(C)[C@@H](NS(=O)(=O)CC(F)(F)F)C(=O)NO ?
## Output > 40 µM

## Input Under Lethal factor (Bacillus anthracis, UniProt P15917): IC50 value of CC(C)[C@@H](NS(=O)(=O)Cc1cccc(Cl)c1)C(=O)NO ?
## Output > 20 µM

## Input Under Lethal factor (Bacillus anthracis, UniProt P15917): IC50 value of Cc1ccc(S(=O)(=O)N[C@@H](C(=O)NO)C(C)C)cc1F ?
## Output > 20 µM

## Input Under Lethal factor (Bacillus anthracis, UniProt P15917): IC50 value of CC(C)[C@@H](NS(=O)(=O)c1ccc(F)cc1CO)C(=O)NO ?
## Output > 20 µM

## Input Under Lethal factor (Bacillus anthracis, UniProt P15917): IC50 value of CC(C)[C@@H](NS(=O)(=O)c1ccc(C(F)(F)F)cc1)C(=O)NO ?
## Output > 20 µM

## Input Under Lethal factor (Bacillus anthracis, UniProt P15917): IC50 value of CC(C)[C@@H](NS(=O)(=O)CCc1ccccc1)C(=O)NO ?
## Output > 20 µM

## Input Under Lethal factor (Bacillus anthracis, UniProt P15917): IC50 value of CC(=O)N(Cc1cccnc1)[C@@H](C(=O)NO)C(C)C ?
## Output > 20 µM

## Input Under Lethal factor (Bacillus anthracis, UniProt P15917): IC50 value of CC(C)[C@@H](NS(=O)(=O)c1ccc(-c2ccccc2)cc1)C(=O)NO ?
## Output > 20 µM

## Input Under Lethal factor (Bacillus anthracis, UniProt P15917): IC50 value of CC(C)[C@@H](NS(=O)(=O)c1ccc(Oc2ccccc2)cc1)C(=O)NO ?
## Output > 20 µM

## Input Under Lethal factor (Bacillus anthracis, UniProt P15917): IC50 value of CCCCOc1ccc(S(=O)(=O)N[C@@H](C(=O)NO)C(C)C)cc1 ?
## Output > 20 µM

## Input Under Lethal factor (Bacillus anthracis, UniProt P15917): IC50 value of CC(C)[C@@H](NS(=O)(=O)c1ccccc1F)C(=O)NO ?
## Output > 20 µM
